I'd appreciate it if you could supply cytotoxic activity (ADCC) against ACHN values for the items below.
Target: T1, human CAPRIN-1 protein on the cell surfaces of human cancer cell lines and in human cancer tissues (human, UniProt Q14444 2-709); also: test concentration or dose not given here
T1 sequence (looked up): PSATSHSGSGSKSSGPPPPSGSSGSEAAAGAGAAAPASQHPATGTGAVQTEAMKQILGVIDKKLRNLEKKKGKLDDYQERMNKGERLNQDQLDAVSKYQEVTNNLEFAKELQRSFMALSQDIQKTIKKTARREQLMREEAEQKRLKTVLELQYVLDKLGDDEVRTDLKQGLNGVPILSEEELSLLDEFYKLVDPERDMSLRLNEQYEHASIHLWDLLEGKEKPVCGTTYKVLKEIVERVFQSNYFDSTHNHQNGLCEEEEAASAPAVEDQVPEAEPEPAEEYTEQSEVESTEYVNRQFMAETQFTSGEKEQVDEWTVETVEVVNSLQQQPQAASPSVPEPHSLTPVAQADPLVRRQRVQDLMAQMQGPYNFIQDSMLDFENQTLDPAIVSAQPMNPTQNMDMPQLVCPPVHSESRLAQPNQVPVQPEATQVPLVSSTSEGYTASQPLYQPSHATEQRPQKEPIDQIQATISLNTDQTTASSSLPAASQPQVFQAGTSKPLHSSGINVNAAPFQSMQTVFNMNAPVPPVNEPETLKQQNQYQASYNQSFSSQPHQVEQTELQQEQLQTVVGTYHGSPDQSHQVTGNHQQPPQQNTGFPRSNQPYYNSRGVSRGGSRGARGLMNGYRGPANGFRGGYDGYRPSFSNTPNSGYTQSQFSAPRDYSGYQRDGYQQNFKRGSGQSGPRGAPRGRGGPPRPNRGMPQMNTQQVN
Experiment: cell-based or functional assay

For orientation, consider the following solved cases.
Binder | Value Kind | Test Result
anti-CAPRIN-1 mouse monoclonal antibody #4 (antibody, V domains shown) VH: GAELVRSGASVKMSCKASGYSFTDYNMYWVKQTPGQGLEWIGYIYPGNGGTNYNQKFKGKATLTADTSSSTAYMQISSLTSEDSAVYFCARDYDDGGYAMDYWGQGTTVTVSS VL: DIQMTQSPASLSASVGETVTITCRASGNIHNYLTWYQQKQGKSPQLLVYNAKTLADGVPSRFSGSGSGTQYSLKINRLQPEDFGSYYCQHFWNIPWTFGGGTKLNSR | cytotoxic activity (ADCC) against ACHN | ≥ 14%
anti-CAPRIN-1 mouse monoclonal antibody #5 (antibody, V domains shown, Mouse hybridoma antibody; detected with anti-mouse IgG) VH: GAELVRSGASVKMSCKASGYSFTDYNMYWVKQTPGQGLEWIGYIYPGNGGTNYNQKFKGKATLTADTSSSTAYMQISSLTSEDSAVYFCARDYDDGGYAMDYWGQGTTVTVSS VL: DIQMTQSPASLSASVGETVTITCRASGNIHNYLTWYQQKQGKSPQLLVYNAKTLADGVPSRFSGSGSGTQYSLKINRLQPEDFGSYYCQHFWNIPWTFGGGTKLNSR | cytotoxic activity (ADCC) against ACHN | ≥ 14%
human-chicken chimeric antibody #1 having the chicken monoclonal antibody #1 variable region (antibody, V domains shown, also called anti-CAPRIN-1 antibody #1; human-chicken chimeric monoclonal antibody (#1); not shown: human IgG1 H-chain constant region; human IgG1 L-chain constant region) VH: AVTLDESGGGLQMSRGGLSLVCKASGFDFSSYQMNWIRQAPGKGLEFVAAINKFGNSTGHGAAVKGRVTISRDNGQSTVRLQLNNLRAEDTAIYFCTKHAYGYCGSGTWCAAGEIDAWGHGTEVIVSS VL: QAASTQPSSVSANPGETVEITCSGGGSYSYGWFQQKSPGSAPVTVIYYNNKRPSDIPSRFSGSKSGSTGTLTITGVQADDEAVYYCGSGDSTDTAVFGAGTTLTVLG | cytotoxic activity (ADCC) against ACHN | 26%

Next binder, please.
The binder anti-CAPRIN-1 mouse monoclonal antibody #6 (antibody, V domains shown, Mouse hybridoma antibody; detected with anti-mouse IgG) VH: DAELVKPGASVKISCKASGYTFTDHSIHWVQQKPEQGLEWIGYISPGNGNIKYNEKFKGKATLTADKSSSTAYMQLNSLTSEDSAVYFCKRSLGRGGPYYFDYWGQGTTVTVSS VL: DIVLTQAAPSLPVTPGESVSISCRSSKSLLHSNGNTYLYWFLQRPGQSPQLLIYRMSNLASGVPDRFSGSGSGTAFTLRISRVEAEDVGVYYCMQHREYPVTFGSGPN showed cytotoxic activity (ADCC) against ACHN equal to ≥ 14%
